- Assay overview: recombinant barcode read abundance after kanamycin selection (control-corrected) (log10(CPM+1)); higher = more efficient recombination; sequences stand for … in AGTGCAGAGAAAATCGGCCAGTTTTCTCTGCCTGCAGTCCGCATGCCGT…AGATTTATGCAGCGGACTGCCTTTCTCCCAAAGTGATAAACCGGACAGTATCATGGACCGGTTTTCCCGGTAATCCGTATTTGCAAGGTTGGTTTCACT; site = the 11-nt target;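 also: IS621 recombinase and bridge RNA in Escherichia coli cells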
Measurement name: recombinant barcode read abundance (log10)
Give bare numbers.

A selection of reference data follows.
CTTCATTCTTGGGTTCTAACCTGTTGCCT (site CTTCATTCTAG): 0.102
TCGAACCCTTGGGTTCTAACCTGTTGCGA (site TCGGACCCTTC): 0.114
TATCGTCCTTGGGTTCTAACCTGTTGCAT (site TACCGTCCTAT): 0.0483
CATCCGACTTGGGTTCTAACCTGTTGCCT (site CATCCGGCTAG): 0.33
ACATGAACTTGGGTTCTAACCTGTTGCAT (site ACATGTACTAT): 0.0493
CTAACGACTTGGGTTCTAACCTGTTGCGG (site CTAACGACTCC): 2.47
GGGTCGGCTTGGGTTCTAACCTGTTGCGC (site GGGTCGGCTGC): 1.88
CTATTCCCTTGGGTTCTAACCTGTTGCTG (site CTCTTCCCTAA): 0.185

Each of the following entries comes with a recorded value; kindly state recombinant barcode read abundance (log10) for each.
1. AGGAATTCTTGGGTTCTAACCTGTTGCCT (site AGGAATTCTAG)
2. TCCCGTCCTTGGGTTCTAACCTGTTGCCT (site TCCCTTCCTAG)
3. GAAATGACTTGGGTTCTAACCTGTTGCCT (site GGAATGACTAG)

output:
[1.59, 0.196, 0.066]

Each of the following entries comes with a recorded value; kindly state recombinant barcode read abundance (log10) for each.
1. AAGAGAGCTTGGGTTCTAACCTGTTGCCT (site AAGATAGCTAG)
2. CCTGACTCTTGGGTTCTAACCTGTTGCAC (site GAACTGCCTAA)
3. TAAGGTCCTTGGGTTCTAACCTGTTGCAG (site TAAGGTCCTCT)
4. AGGAGCCCTTGGGTTCTAACCTGTTGCTG (site AGGAGCCCTCA)
5. TGAATGTCTTGGGTTCTAACCTGTTGCCT (site TGAAGGTCTAG)

output:
1. 0.0307
2. 0.0359
3. 2.47
4. 1.75
5. 0.0166

src = the supplement of paper PMC11208160
